Every entry's value here was drawn from patent US20170008921A1.

Test: Cyto-toxicity (MTT assay)
Format: cell-based
Measured Property: viability at 4 days, 0.01 µM (%)
Answers are plain numbers, in %.

Worked cases, viability at 4 days, 0.01 µM given:
[
  {
    "Molecule": "Cc1cccc(NC(=O)NC(C)(C)C(=O)N[C@@]23CC[C@]4(C)[C@H](CC[C@@H]5[C@@]6(C)CC[C@H](OC(=O)[C@H]7C[C@@H](C(=O)O)C7(C)C)C(C)(C)[C@@H]6CC[C@]54C)C2=C(C(C)C)C(=O)C3)n1 [Example 72]",
    "viability at 4 days, 0.01 µM (%)": 27
  },
  {
    "Molecule": "CC(C)C1=C2[C@H]3CC[C@@H]4[C@@]5(C)CC[C@H](OC(=O)[C@H]6C[C@@H](C(=O)O)C6(C)C)C(C)(C)[C@@H]5CC[C@@]4(C)[C@]3(C)CC[C@@]2(NC(=O)C(C)(C)NCCN(C)C)CC1=O [Example 73]",
    "viability at 4 days, 0.01 µM (%)": 52
  },
  {
    "Molecule": "CC(C)C1=C2[C@H]3CC[C@@H]4[C@@]5(C)CC[C@H](OC(=O)[C@H]6C[C@@H](C(=O)O)C6(C)C)C(C)(C)[C@@H]5CC[C@@]4(C)[C@]3(C)CC[C@@]2(NC(=O)C2(NC(=O)c3ccc(Cl)cc3)CC2)CC1=O [Example 37]",
    "viability at 4 days, 0.01 µM (%)": 26
  }
]

Provide measured viability at 4 days, 0.01 µM value, entry: Cc1ccc(C(=O)NC2(C(=O)N[C@@]34CC[C@]5(C)[C@H](CC[C@@H]6[C@@]7(C)CC[C@H](OC(=O)[C@H]8C[C@@H](C(=O)O)C8(C)C)C(C)(C)[C@@H]7CC[C@]65C)C3=C(C(C)C)C(=O)C4)CC2)cn1 [Example 38]
20

----------
Assay: Cyto-toxicity (MTT assay)
Format: cell-based
Measured Property: viability at 4 days, 0.001 µM

[
  {
    "Compound Structure": "CC(C)C1=C2[C@H]3CC[C@@H]4[C@@]5(C)CC[C@H](OC(=O)[C@H]6C[C@@H](C(=O)O)C6(C)C)C(C)(C)[C@@H]5CC[C@@]4(C)[C@]3(C)CC[C@@]2(NC(=O)C2(NC(=O)c3ncccn3)CCC2)CC1=O",
    "Test Value": "84%"
  },
  {
    "Compound Structure": "CC(C)C1=C2[C@H]3CC[C@@H]4[C@@]5(C)CC[C@H](OC(=O)[C@H]6C[C@@H](C(=O)O)C6(C)C)C(C)(C)[C@@H]5CC[C@@]4(C)[C@]3(C)CC[C@@]2(NC(=O)C(C)(C)NC(=O)c2ccc(S(C)(=O)=O)cc2)CC1=O",
    "Test Value": "86%"
  },
  {
    "Compound Structure": "Cc1cccc(NC(=O)NC(C)(C)C(=O)N[C@@]23CC[C@]4(C)[C@H](CC[C@@H]5[C@@]6(C)CC[C@H](OC(=O)[C@H]7C[C@@H](C(=O)O)C7(C)C)C(C)(C)[C@@H]6CC[C@]54C)C2=C(C(C)C)C(=O)C3)n1",
    "Test Value": "98%"
  }
]

// Input: Cc1cn(-c2ccc(C(=O)NC(C)(C)C(=O)N[C@@]34CC[C@]5(C)[C@H](CC[C@@H]6[C@@]7(C)CC[C@H](OC(=O)[C@H]8C[C@@H](C(=O)O)C8(C)C)C(C)(C)[C@@H]7CC[C@]65C)C3=C(C(C)C)C(=O)C4)cc2)cn1 . Output its viability at 4 days, 0.001 µM only.
91%

----------
Experiment: Cyto-toxicity (MTT assay)
Type: cell-based
Threshold 40%: viability at 4 days, 0.01 µM strictly smaller gives fulfilled, otherwise not fulfilled.

Reference set, count: 5
[
  {
    "Compound": "CC(C)C1=C2[C@H]3CC[C@@H]4[C@@]5(C)CC[C@H](OC(=O)[C@H]6C[C@@H](C(=O)O)C6(C)C)C(C)(C)[C@@H]5CC[C@@]4(C)[C@]3(C)CC[C@@]2(NC(=O)C(C)(C)NC(=O)c2cc(C(C)C)n[nH]2)CC1=O [Example 17]",
    "Cat": "fulfilled"
  },
  {
    "Compound": "Cc1ccc(C(=O)NC2(C(=O)N[C@@]34CC[C@]5(C)[C@H](CC[C@@H]6[C@@]7(C)CC[C@H](OC(=O)[C@H]8C[C@@H](C(=O)O)C8(C)C)C(C)(C)[C@@H]7CC[C@]65C)C3=C(C(C)C)C(=O)C4)CCC2)cn1 [Example 43]",
    "Cat": "not fulfilled"
  },
  {
    "Compound": "Cc1ccc(-c2nc3cc(C(=O)NC(C)(C)C(=O)N[C@@]45CC[C@]6(C)[C@H](CC[C@@H]7[C@@]8(C)CC[C@H](OC(=O)[C@H]9C[C@@H](C(=O)O)C9(C)C)C(C)(C)[C@@H]8CC[C@]76C)C4=C(C(C)C)C(=O)C5)ccc3[nH]2)cn1 [Example 13]",
    "Cat": "not fulfilled"
  },
  {
    "Compound": "CC(C)C1=C2[C@H]3CC[C@@H]4[C@@]5(C)CC[C@H](OC(=O)[C@H]6C[C@@H](C(=O)O)C6(C)C)C(C)(C)[C@@H]5CC[C@@]4(C)[C@]3(C)CC[C@@]2(NC(=O)C2(NC(=O)c3ccc(Cl)cc3)CCCCC2)CC1=O [Example 48]",
    "Cat": "not fulfilled"
  },
  {
    "Compound": "CC(C)C1=C2[C@H]3CC[C@@H]4[C@@]5(C)CC[C@H](OC(=O)[C@H]6C[C@@H](C(=O)O)C6(C)C)C(C)(C)[C@@H]5CC[C@@]4(C)[C@]3(C)CC[C@@]2(NC(=O)C(C)(C)NC(=O)c2cccnc2N2CCOCC2)CC1=O [Example 31]",
    "Cat": "not fulfilled"
  }
]

Please let me know if CC(C)C1=C2[C@H]3CC[C@@H]4[C@@]5(C)CC[C@H](OC(=O)[C@H]6C[C@@H](C(=O)O)C6(C)C)C(C)(C)[C@@H]5CC[C@@]4(C)[C@]3(C)CC[C@@]2(NC(=O)C(C)(C)NC(=O)c2ccc(Cl)c(Cl)c2)CC1=O [Example 4] shows viability at 4 days, 0.01 µM below 40%.
fulfilled

Threshold test, viability at 4 days, 0.01 µM < 40%: CC(C)C1=C2[C@H]3CC[C@@H]4[C@@]5(C)CC[C@H](OC(=O)[C@H]6C[C@@H](C(=O)O)C6(C)C)C(C)(C)[C@@H]5CC[C@@]4(C)[C@]3(C)CC[C@@]2(NC(=O)C(C)(C)NC(=O)c2ccc(S(C)(=O)=O)cc2)CC1=O [Example 51]
fulfilled

----------
Test: Single dose oral pharmacokinetic study
Format: in vivo
Conditions: mouse; Mice oral PK @30 mg/kg; plasma; vehicle 10% Solutol+20% PEG; read-out: Cmax
Measured Property: Cmax (ng/mL)
Answers are plain numbers, in ng/mL.

Give measured Cmax for every item shown.
1. Cc1occc1C(=O)NC(C)(C)C(=O)N[C@@]12CC[C@]3(C)[C@H](CC[C@@H]4[C@@]5(C)CC[C@H](OC(=O)[C@H]6C[C@@H](C(=O)O)C6(C)C)C(C)(C)[C@@H]5CC[C@]43C)C1=C(C(C)C)C(=O)C2
2. CC(C)C1=C2[C@H]3CC[C@@H]4[C@@]5(C)CC[C@H](OC(=O)[C@H]6C[C@@H](C(=O)O)C6(C)C)C(C)(C)[C@@H]5CC[C@@]4(C)[C@]3(C)CC[C@@]2(NC(=O)C(C)(C)NC(=O)c2ccc(N3CCOCC3)cc2)CC1=O
3. CC(C)C1=C2[C@H]3CC[C@@H]4[C@@]5(C)CC[C@H](OC(=O)[C@H]6C[C@@H](C(=O)O)C6(C)C)C(C)(C)[C@@H]5CC[C@@]4(C)[C@]3(C)CC[C@@]2(NC(=O)C(C)(C)NC(=O)c2ccc(C(F)(F)F)cc2)CC1=O
4. Cc1nc(C)c(C(=O)NC(C)(C)C(=O)N[C@@]23CC[C@]4(C)[C@H](CC[C@@H]5[C@@]6(C)CC[C@H](OC(=O)[C@H]7C[C@@H](C(=O)O)C7(C)C)C(C)(C)[C@@H]6CC[C@]54C)C2=C(C(C)C)C(=O)C3)s1

23000
15900
24000
26800

----------
Experiment: Cyto-toxicity (MTT assay)
Type: cell-based
Checkbox rule: viability at 4 days, 0.1 µM lower than 10% = 1.0; viability at 4 days, 0.1 µM not lower than 10% = 0.0.

Solved cases below.
[
  {
    "Compound Structure": "CCN1CCN(CC(=O)NC(C)(C)C(=O)N[C@@]23CC[C@]4(C)[C@H](CC[C@@H]5[C@@]6(C)CC[C@H](OC(=O)[C@H]7C[C@@H](C(=O)O)C7(C)C)C(C)(C)[C@@H]6CC[C@]54C)C2=C(C(C)C)C(=O)C3)CC1",
    "Cat": 0.0
  },
  {
    "Compound Structure": "Cc1cccc(C(=O)NC(C)(C)C(=O)N[C@@]23CC[C@]4(C)[C@H](CC[C@@H]5[C@@]6(C)CC[C@H](OC(=O)[C@H]7C[C@@H](C(=O)O)C7(C)C)C(C)(C)[C@@H]6CC[C@]54C)C2=C(C(C)C)C(=O)C3)n1",
    "Cat": 0.0
  },
  {
    "Compound Structure": "CC(C)C1=C2[C@H]3CC[C@@H]4[C@@]5(C)CC[C@H](OC(=O)[C@H]6C[C@@H](C(=O)O)C6(C)C)C(C)(C)[C@@H]5CC[C@@]4(C)[C@]3(C)CC[C@@]2(NC(=O)C(C)(C)NC(=O)c2ccco2)CC1=O",
    "Cat": 0.0
  },
  {
    "Compound Structure": "Cc1ccc(C(=O)NC(C)(C)C(=O)N[C@@]23CC[C@]4(C)[C@H](CC[C@@H]5[C@@]6(C)CC[C@H](OC(=O)[C@H]7C[C@@H](C(=O)O)C7(C)C)C(C)(C)[C@@H]6CC[C@]54C)C2=C(C(C)C)C(=O)C3)cc1",
    "Cat": 1.0
  },
  {
    "Compound Structure": "CC(C)C1=C2[C@H]3CC[C@@H]4[C@@]5(C)CC[C@H](OC(=O)[C@H]6C[C@@H](C(=O)O)C6(C)C)C(C)(C)[C@@H]5CC[C@@]4(C)[C@]3(C)CC[C@@]2(NC(=O)C(C)(C)NC(=O)c2ccc(C(F)(F)F)cc2)CC1=O",
    "Cat": 1.0
  },
  {
    "Compound Structure": "CC(C)C1=C2[C@H]3CC[C@@H]4[C@@]5(C)CC[C@H](OC(=O)[C@H]6C[C@@H](C(=O)O)C6(C)C)C(C)(C)[C@@H]5CC[C@@]4(C)[C@]3(C)CC[C@@]2(NC(=O)C(C)(C)NC(=O)OC(C)(C)C)CC1=O",
    "Cat": 0.0
  }
]

API: the following record is the query input.
Hello, is viability at 4 days, 0.1 µM of the following compound strictly smaller than 10%? CC(C)C1=C2[C@H]3CC[C@@H]4[C@@]5(C)CC[C@H](OC(=O)[C@H]6C[C@@H](C(=O)O)C6(C)C)C(C)(C)[C@@H]5CC[C@@]4(C)[C@]3(C)CC[C@@]2(NC(=O)C(C)(C)NC(=O)c2ccc3[nH]cnc3c2)CC1=O
1.0
